I'd be grateful if you could share measured IC50 of TG2 activity, 3H putrescine incorporation for these entries.
- System Under Test: T1, human transglutaminase type 2 (TG2) (human, UniProt P21980 1-687)
- T1 sequence: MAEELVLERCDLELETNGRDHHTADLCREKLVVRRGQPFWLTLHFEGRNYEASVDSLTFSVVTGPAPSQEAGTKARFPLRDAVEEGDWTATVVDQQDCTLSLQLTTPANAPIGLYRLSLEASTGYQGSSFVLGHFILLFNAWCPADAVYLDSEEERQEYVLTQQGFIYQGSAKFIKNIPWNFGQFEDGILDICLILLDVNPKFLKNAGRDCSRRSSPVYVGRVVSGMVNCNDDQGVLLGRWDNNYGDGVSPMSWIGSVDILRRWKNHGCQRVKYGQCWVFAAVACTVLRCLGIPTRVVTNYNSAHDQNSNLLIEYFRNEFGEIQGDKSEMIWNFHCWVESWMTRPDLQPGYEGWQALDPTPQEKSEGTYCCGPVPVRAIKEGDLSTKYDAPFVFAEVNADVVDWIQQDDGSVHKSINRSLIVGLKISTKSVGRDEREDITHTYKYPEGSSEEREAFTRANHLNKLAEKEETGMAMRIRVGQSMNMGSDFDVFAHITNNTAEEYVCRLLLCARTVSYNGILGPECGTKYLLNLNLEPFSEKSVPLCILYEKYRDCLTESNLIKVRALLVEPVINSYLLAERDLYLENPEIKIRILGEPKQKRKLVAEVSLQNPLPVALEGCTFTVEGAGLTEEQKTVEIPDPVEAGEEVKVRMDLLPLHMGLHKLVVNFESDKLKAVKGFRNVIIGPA
- Assay Procedure: cell-based or functional assay
Field: numeric (mg/ml IgG per ng TG2). Do not append units.

// lookup IC50 of TG2 activity, 3H putrescine incorporation for AH3 murine monoclonal antibody (antibody, V domains shown, Mouse hybridoma IgG; heavy chain amplified with primer MHCG2B, kappa light chain) VH: EVQLQQSGPELVKPGASVKMSCRASGYTFTTYVIHWVKQKPGQGLEWIGYINPYNDGARYNEKFKGKATLTSDKSSTTAYMELSSLTSEDSAVYYCARLSSDYWGQGTTLTVSS VL: DVLMTQNPLSLPVSLGDQASISCRSSRSIEHSNGNTYLEWYLQKPGQSPKFLIYKVSNRFSGVPDRFSGSGSGTDFTLRISSVEAEDLGVYYCFQGSHVPFTFGGGTKLEIK
7.8e-05

// lookup IC50 of TG2 activity, 3H putrescine incorporation for AG9 murine monoclonal antibody (antibody, V domains shown, Mouse hybridoma IgG; heavy chain amplified with primer MHCG1, kappa light chain) VH: EVQLQQSGPELVKPGASVKMSCRASGYTFTTYVIHWVKQKPGQGLEWIGYINPYNDGARYNEKFKGKATLTSDKSSTTAYMELSSLTSEDSAVYYCARLSSDYWGQGTTLTVSS VL: DVLMTQNPLSLPVSLGDQASISCRSSRSIEHSNGNTYLEWYLQKPGQSPKFLIYKVSNRFSGVPDRFSGSGSGTDFTLRISSVEAEDLGVYYCFQGSHVPFTFGGGTKLEIK
4.87e-05

// lookup IC50 of TG2 activity, 3H putrescine incorporation for EH6 murine monoclonal antibody (antibody, V domains shown, Mouse hybridoma IgG; heavy chain amplified with primer MHCG2B, kappa light chain) VH: EVQLQQSGPELVKPGASVKMSCKASGYTFTSYVMHWVKQKPGQGLEWIGFINPYNDGTKYNEKFKGKATLTSDKASTTAYMELSSLTSEDSAVYYCARFSSGYWGQGTTLTVSS VL: DVLMTQTPLSLPVSLGDQASISCRSSQSIVHSNGNTYLEWYLQKPGQSPKLLIYKVSNRFSGVPDRFSGSGSGTDFTLKISRVGAEDLGVYYCLQVSHVPFTFGSGTKLEIK
6.9e-05
